Test system: acute myeloid leukemia cells (MOLM-13)
Experiment: In vitro potency (CellTiter-Glo, 96 h) on MOLM-13
Format: cell-based
Conditions: Homo sapiens, MOLM-13, 96 h, CPT free drugs; CellTiter-Glo after 96 h exposure; read-out: MOLM-13 IC50
Description: In vitro potency was assessed on multiple cancer cell lines. All cell lines were authenticated by STR profiling at IDEXX Bioresearch and cultured for no more than 2 months after resuscitation. […] After 96 hours, growth inhibition was assessed by CellTiterGlo® (Promega, Madison, WI) and luminescence was measured on a plate reader. Cell viability was determined by CellTiter-Glo staining after 96h exposure to ADC. ND=Not Determined. […]
measured-quantity: pIC50
Note: pIC50 values are expressed as the negative base-10 logarithm of concentration in M.

Reference set (3 entries):
compound	tested-system	pIC50
CC[C@@]1(O)C(=O)OCc2c1cc1n(c2=O)Cc2c-1nc1cccc(OC)c1c2CN [Compound 5a]	acute myeloid leukemia cells (MOLM-13)	7.14
CC[C@@]1(O)C(=O)OCc2c1cc1n(c2=O)Cc2c-1nc1cc(F)c(C)c(-c3ccco3)c1c2CN [Compound 6o]	acute myeloid leukemia cells (MOLM-13)	7.85
CC[C@@]1(O)C(=O)OCc2c1cc1n(c2=O)Cc2c-1nc1cc(F)c(C)c(-c3ccccc3)c1c2CN [Compound 6j]	acute myeloid leukemia cells (MOLM-13)	7.82

Recorded pIC50 for CC[C@@]1(O)C(=O)OCc2c1cc1n(c2=O)Cc2c-1nc1cc(F)c(C)c(-c3cccs3)c1c2CN [Compound 6n] with acute myeloid leukemia cells (MOLM-13), please? 7.52

Recorded pIC50 for CC[C@@]1(O)C(=O)OCc2c1cc1n(c2=O)Cc2c-1nc1cc(F)c3c(c1c2CN)CCC3 [Compound 2as] with acute myeloid leukemia cells (MOLM-13), please? 7.29

Recorded pIC50 for CC[C@@]1(O)C(=O)OCc2c1cc1n(c2=O)Cc2c-1nc1ccc3c(c1c2CN)COC3 [Compound 2aq] with acute myeloid leukemia cells (MOLM-13), please? 7.41

Recorded pIC50 for C=Cc1ccc2nc3c(c(CN)c2c1)Cn1c-3cc2c(c1=O)COC(=O)[C@]2(O)CC [Compound 33] with acute myeloid leukemia cells (MOLM-13), please? 7.07
